Origin of the recorded values: patent US11845793B2

Measured kon by item
# subject_of_test: StrepII-tagged ROR1-extracellular domain (human, UniProt Q01973)
# Sequence (Q01973 other isoform, or with tags, fused parts or gaps): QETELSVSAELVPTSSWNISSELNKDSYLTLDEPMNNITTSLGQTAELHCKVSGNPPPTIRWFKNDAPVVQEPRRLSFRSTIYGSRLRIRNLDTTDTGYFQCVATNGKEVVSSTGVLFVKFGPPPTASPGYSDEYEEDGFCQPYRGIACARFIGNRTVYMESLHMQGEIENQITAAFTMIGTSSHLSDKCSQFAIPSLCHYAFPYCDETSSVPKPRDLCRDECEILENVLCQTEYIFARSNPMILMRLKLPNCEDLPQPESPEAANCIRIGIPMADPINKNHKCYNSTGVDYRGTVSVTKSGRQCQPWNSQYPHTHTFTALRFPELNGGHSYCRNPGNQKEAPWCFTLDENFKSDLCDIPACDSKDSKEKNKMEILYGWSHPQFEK
# protocol_text: SPR (Biacore T200), purified mAb captured by anti-human Fc, ROR1-strep as analyte, 1:1 model
Output spec: scalar in M⁻¹ s⁻¹, unitless text.

chimeric mAb 2A2 (antibody, V domains shown) VH: QVQLQQSGAELVRPGASVTLSCKASGYTFSDYEMHWVIQTPVHGLEWIGAIDPETGGTAYNQKFKGKAILTADKSSSTAYMELRSLTSEDSAVYYCTGYYDYDSFTYWGQGTLVTVSA VL: DIVMTQSQKIMSTTVGDRVSITCKASQNVDAAVAWYQQKPGQSPKLLIYSASNRYTGVPDRFTGSGSGTDFTLTISNMQSEDLADYFCQQYDIYPYTFGGGTKLEIK    1.69e+06
rbD4, humanized from R11 (antibody, V domains shown) VH: EVQLVESGGGLVQPGRSLRLSCTASGSDINDYPISWFRQAPGKGLEWVGFINSGGSTWYASWVKGRFTISRDDSKSIAYLQMNSLKTDDTATYFCARGYSTYYGDFNIWGQGTTVTVSS VL: DVVMTQSPSSLSASVGDRVTITCQASQSIDSNLAWFQQKPGKAPNLLIYRASNLASGVPSRFSGSGSGTEFTLTISSLQREDAATYYCLGGVGNVSYRTSFGQGTKVEIK    785000

Turning now to a further binder:
*Q* Respond only with kon recorded for chimeric mAb R11 (antibody, V domains shown) VH: QSVKESEGDLVTPAGNLTLTCTASGSDINDYPISWVRQAPGKGLEWIGFINSGGSTWYASWVKGRFTISRTSTTVDLKMTSLTTDDTATYFCARGYSTYYGDFNIWGPGTLVTISS VL: ELVMTQTPSSTSGAVGGTVTINCQASQSIDSNLAWFQQKPGQPPTLLIYRASNLASGVPSRFSGSRSGTEYTLTISGVQREDAATYYCLGGVGNVSYRTSFGGGTEVVVK
*A* 957000
